These measurements were taken from ChEMBL document CHEMBL1921736.

experiment: Competitive inhibition of diphenolase activity of banana tyrosinase using catechol as substrate by Lineweaver-Burk double reciprocal plot analysis; set-up: species or system Musa acuminata
observation.type: Ki (nM)

Use these answered entries as a reference point.
| smiles | observation.type | units.symbol | experimental.result |
| --- | --- | --- | --- |
| Cc1ccc(NC(=O)Nc2ccc(/C=C/C(=O)c3ccc(Cl)cc3)cc2)cc1 | Ki | nM | 129 |
| COc1cccc(NC(=O)Nc2ccc(/C=C/C(=O)c3ccccc3)cc2)c1 | Ki | nM | 240 |
| O=C(Nc1ccc(F)cc1)Nc1ccc(/C=C/C(=O)c2ccccc2)cc1 | Ki | nM | 125 |

[A] COc1cccc(NC(=O)Nc2ccc(/C=C/C(=O)c3ccc(Cl)cc3)cc2)c1
[B] O=C(Nc1ccccc1)Nc1ccc(/C=C/C(=O)c2ccccc2)cc1
Pick one: A or B . Which has the bigger Ki number? Returns: label corresponding to the selected item.
A

[1] O=C(Nc1ccc(F)cc1)Nc1ccc(/C=C/C(=O)c2ccc(Cl)cc2)cc1
[2] Cc1ccc(C(=O)/C=C/c2ccc(NC(=O)Nc3ccc(F)cc3)cc2)cc1
[3] COc1ccc(C(=O)/C=C/c2ccc(NC(=O)Nc3ccc(C)cc3)cc2)cc1
Order the records so the highest Ki appears first and the lowest last. Give the order by naming the labels one after another as requested.
1, 2, 3
